system: MS2 coat protein; test: apparent KD of MS2 coat protein; designed switch direction (-1 OFF switch, 1 ON switch): -1; higher = weaker reporter binding; settings: Eterna round: R95; input ligand: FMN 200 uM
Classification field: enter label 1 for apparent KD of MS2 coat protein values not below 50 nM, label 0 for values below it.

Examples with answers:
seq-string: UUAAGCUUUGAGAUCCUUAACAUGAGGAUCACCCAUGUUCGUCUUAUGAUGGUCUGAUCCCUGAGGAUCGGACCGUA [Mat - Sensor v3 - turn-off var 1 - JL Mod - D4] (puzzle: Sensor v3, turn-off variant 1)
system-tested: MS2 coat protein
discrete-label: label 1
//
seq-string: AGUGCGUAUGUGAGGAUAUGCUGGUCCUUGGAUCAGCAGAAGGCACAUGAGGAUCACCCAUGUGGUGUCGUACG [salish99_Bmod_Ex4_004] (puzzle: Brourd's mod of Exclusion 4)
system-tested: MS2 coat protein
discrete-label: label 1
//
seq-string: GUAGAGUAAGGAUAUUGUGAAUAGGAUAGAAUGGUUAGAAACGAGAAGGUACAUGAGGAUCACCCAUGUAAUGU [Excluse me!!!! 22 - Jieux - Exclusion 4] (puzzle: Exclusion 4)
system-tested: MS2 coat protein
discrete-label: label 0

Data request: Tell me whether apparent KD of MS2 coat protein is at least 50 nM here: UUUAAUUUUUUUUUUUUACAAGCUUUUUGCUCGUCUUAUACAUGAGGAUCACCCAUGUGGGUGAGAGAUAAAUUAUC [JMF 14] (puzzle: Sensor v3, turn-off variant 2)
Data returned: label 1

Data request: And then AAUAACAAGUAAGAUCCUAACAUGAGGAUCACCCAUGUGCUCGUCUUAUAAAGUACUAUCACGAAAGUGAUAGUACA [Sensor 3, v1 - 46] (puzzle: Sensor v3, turn-off variant 1) , what is it?
Data returned: label 0
